System: K-562 leukemia
protocol-text: NCI tumour cell line growth inhibition, 48 h
// values below are reported log10 TGI
property: log10 TGI (log10 of the value in µM)

molecule	property	data-value
C#CCN(C(=O)C(F)(F)F)c1ccc(C(=O)c2ccc(N(CC#C)C(=O)C(F)(F)F)cc2)cc1	log10 TGI	1.80
c1ccc([As]=[As]c2ccccc2)cc1 (configuration not stated)	log10 TGI	0.32
ClCc1cccc(CSc2ncnc3c2ncn3Cc2cccc(CCl)c2)c1	log10 TGI	1.18
Nc1nc(N)c2cc(Sc3cccc(C(F)(F)F)c3)ccc2n1	log10 TGI	0.28
CC(=O)OC1CC[C@@]2(C)C(CC[C@]3(C)C2CC=C2[C@@H]4C(C)[C@H](C)CCC4(C)CCC23C)[C@@]1(C)C(=O)O (some centres not stated)	log10 TGI	1.94
